Target: T1, human B7-H4 extracellular domain (human, UniProt Q7Z7D3 29-258);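 also: tested antibody premixed 1:1 with biotinylated parental antibody, 2 h at room temperature on coated ECD, bound biotin detected via streptavidin-HRP, absorbance read at 450 nm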
T1 construct: For SPR it says only human B7-H4 ECD; also called Hu B7-H4 ECD; huB7-H4 ECD
T1 sequence: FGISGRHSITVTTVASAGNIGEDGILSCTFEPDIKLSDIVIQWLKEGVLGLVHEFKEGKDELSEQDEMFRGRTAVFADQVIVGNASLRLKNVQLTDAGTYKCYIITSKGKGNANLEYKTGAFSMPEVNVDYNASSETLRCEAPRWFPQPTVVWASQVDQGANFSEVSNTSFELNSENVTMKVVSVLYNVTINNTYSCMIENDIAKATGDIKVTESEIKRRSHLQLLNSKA
Experiment: competition ELISA on coated huB7-H4 ECD; competitor biotinylated 0052 (by series, not given)
pIC50: −log10 of the molar value.
assay-metric: pIC50

>>> assay_result("B7-H4 antibody 0270 (antibody, human IgG1, kappa, V domains shown) VH: QVQLQQWGAGLLKPSETLSLTCAVYGGSFSGYYWNWIRQPPGKGLEWIGEINHSGSTKYNPSLKSRVTISGDTSKNQFSLKLNSVTAADTAVYYCVRGLYNWNVDSWGQGTLVTVSS VL: DIQMTQSPSSLSASVGDRVTITCRASQGIRNDLGWYQQKPGKAPKRLIYVASSLQSGVPSRFSGSGSGTDFTLTISSLQPEDFATYYCLQHNSYPYTFGQGTKLEIKR")
8.04
>>> assay_result("B7-H4 antibody 0388 (antibody, human IgG1, kappa, V domains shown) VH: QVQLQQWGAGLLKPSETLPLTCAVYGGSFSGYYWNWIRQPPGKGLEWIGEINHSGSATYNPSLKSRVTISVDTSKNHFSLKLSSVTAADTAVYFCARGLYNWNVDHWGQGTLVTVSS VL: DIQMTQSPSSLSASVGDRVTITCRASQGIRNDLGWYQQKPGKAPKRLIYAASSLQSGVPSRFSGSGSGTDFTLTISSLQPEDFATYYCLQHNAYPYTFGQGTKLEIKR")
7.95
>>> assay_result("B7-H4 antibody 0911 (antibody, human IgG1, kappa, V domains shown) VH: EVQLVESGGGLVQPGGSLRLSCAVSGGSFSGYYWNWIRQPPGKGLEWIGEINHSGSATYNPSLKSRVTISVDTAKNSLYLQMNSLRAEDTAVYYCARGLYNWNVDHWGQGTLVTVSS VL: DIQMTQSPSSLSASVGDRVTITCRASQGIRNDLGWYQQKPGKAPKRLIYAASSLQSGVPSRFSGSGSGTDFTLTISSLQPEDFATYYCLQHSSYPRTFGGGTKVEIKR")
8.60
>>> assay_result("B7-H4 antibody 0542 (antibody, human IgG1, kappa, V domains shown) VH: EVQLVESGGGLVQPGGSLRLSCAASGGSFSGYYWNWIRQPPGKGLEWIGEIDHQGSTKYNPSLKSRVTISVDTAKNSLYLQMNSLRAEDTAVYYCARELYNWNVDHWGQGTLVTVSS VL: DIQMTQSPSSLSASVGDRVTITCRASQGIRNDLGWYQQKPGKAPKRLIYAASSLQSGVPSRFSGSGSGTDFTLTISSLQPEDFATYYCLQHSSYPRTFGGGTKVEIKR")
7.47
>>> assay_result("B7-H4 antibody 0350 (antibody, human IgG1, kappa, V domains shown) VH: EVQLVESGGGLVQPGGSLRLSCAVSGGSFSGYYWSWVRQPPGKGLEWIGEINHSGSATYNPSLKSRFTISVDTAKNSFYLQMNSLRAEDTAVYYCARGLYNWNVDHWGQGTLVTVSS VL: DIQMTQSPSSLSASVGDRVTITCRASQGIRNDLGWYQQKPGKAPKRLIYAASSLQSGVPSRFSGSGSGTEFTLTISSLQPEDFATYYCLQHNSYPRTFGGGTKVEIKR")
7.75

Reference source for all entries: patent US20220017622A1
